Reported solubility kinetic at 1.5 h values for the following molecules.
Experiment: Aqueous solubility of the compound in phosphate buffered saline after 90 mins by laser nephelometry at pH 4
Assay type: physicochemical
Report the value in µM with no unit label.

## Input Which measured solubility kinetic at 1.5 h value corresponds to C/C(=N\OC(=O)CN1CCOCC1)[C@H]1CC[C@H]2[C@@H]3CCC4=CC(=O)CC[C@]4(C)[C@H]3CC[C@]12C ?
## Output 215

## Input Follow-up entry: CC(=O)O/N=C(\C)[C@H]1CC[C@H]2[C@@H]3CCC4=CC(=O)CC[C@]4(C)[C@H]3CC[C@]12C
## Output 180

## Input Follow-up entry: C/C(=N\OC(=O)CN1CCN(C)CC1)[C@H]1CC[C@H]2[C@@H]3CCC4=CC(=O)CC[C@]4(C)[C@H]3CC[C@]12C
## Output 153

## Input Follow-up entry: C/C(=N\OC(=O)c1ccc[n+](C)c1)[C@H]1CC[C@H]2[C@@H]3CCC4=CC(=O)CC[C@]4(C)[C@H]3CC[C@]12C.[I-]
## Output 349

## Input Follow-up entry: CC(=O)[C@H]1CC[C@H]2[C@@H]3CCC4=C/C(=N/OC(=O)[C@@H](N)C(C)C)CC[C@]4(C)[C@H]3CC[C@]12C.Cl
## Output 322

## Input Follow-up entry: C/C(=N\OC(=O)C1CCNCC1)[C@H]1CC[C@H]2[C@@H]3CCC4=CC(=O)CC[C@]4(C)[C@H]3CC[C@]12C.Cl
## Output 247

## Input Follow-up entry: C/C(=N\OC(=O)[C@@H]1CCC[N+]1(C)C)[C@H]1CC[C@H]2[C@@H]3CCC4=CC(=O)CC[C@]4(C)[C@H]3CC[C@]12C.[I-]
## Output 345

----------
Experiment: Aqueous solubility of the compound in phosphate buffered saline after 90 mins by laser nephelometry at pH 7.4
Assay type: physicochemical
Reported solubility kinetic at 1.5 h values for the following compounds.

Consider the reported solubility kinetic at 1.5 h for these compounds:
[
  {
    "smi": "C/C(=N\\OC(=O)c1cccnc1)[C@H]1CC[C@H]2[C@@H]3CCC4=CC(=O)CC[C@]4(C)[C@H]3CC[C@]12C",
    "solubility kinetic at 1.5 h": "< 35 µM"
  },
  {
    "smi": "C/C(=N\\OC(=O)c1ccc(CN2CCN(C)CC2)cc1)[C@H]1CC[C@H]2[C@@H]3CCC4=CC(=O)CC[C@]4(C)[C@H]3CC[C@]12C",
    "solubility kinetic at 1.5 h": "< 30 µM"
  },
  {
    "smi": "C/C(=N\\OC(=O)c1ccc(CN)cc1)[C@H]1CC[C@H]2[C@@H]3CCC4=CC(=O)CC[C@]4(C)[C@H]3CC[C@]12C.Cl",
    "solubility kinetic at 1.5 h": "< 30 µM"
  },
  {
    "smi": "CO/N=C(\\C)[C@H]1CC[C@H]2[C@@H]3CCC4=CC(=O)CC[C@]4(C)[C@H]3CC[C@]12C",
    "solubility kinetic at 1.5 h": "< 25 µM"
  }
]

# input for lookup
## Input Which measured solubility kinetic at 1.5 h value corresponds to C/C(=N\OC(=O)C1CC[N+](C)(C)CC1)[C@H]1CC[C@H]2[C@@H]3CCC4=CC(=O)CC[C@]4(C)[C@H]3CC[C@]12C.[I-] ?
## Output > 500 µM
